# System: Influenza type A (strain A/PR/8/34, ATCC VR-95)
# measurementDescription: Influenza antiviral assay: inhibition of virus-induced cytopathic effects (CPE) in MDCK cells, XTT dye reduction
# Format: cell-based
# studyConditions: Influenza A virus, H1N1 / PR/8, MDCK, 96 h, strain A/PR/8/34, MDCK cells, CPE inhibition at 4 days

- compound: "CN1C(=O)c2c(O)c(=O)ccn2N(C23c4cccc(F)c4CC2Cc2c(F)cccc23)C1CN (stereo not shown)"
  EC50: "125 to 250 nM"
- compound: "COCCN1CN(C23c4ccccc4CC2Cc2c3ccc(F)c2F)n2ccc(=O)c(O)c2C1=O (stereo not shown)"
  EC50: "< 125 nM"
- compound: "O=C1c2c(O)c(=O)ccn2N(C23c4ccccc4CC2Cc2c(F)cccc23)CN1CCCF (stereo not shown)"
  EC50: "< 125 nM"
- compound: "CN1CN(C23c4ccccc4CC2Cc2cc(F)c(F)cc23)n2ccc(=O)c(O)c2C1=O (stereo not shown)"
  EC50: "< 125 nM"
- compound: "O=C1c2c(O)c(=O)ccn2N(C23c4cccc(F)c4CC2Cc2c(F)cccc23)CN1CC1CC1 (stereo not shown)"
  EC50: "< 125 nM"
- compound: "CN1CN(C23c4ccccc4CC2Cc2c3ccc(Cl)c2F)n2ccc(=O)c(O)c2C1=O (stereo not shown)"
  EC50: "< 125 nM"
- compound: "CCN1C(=O)c2c(O)c(=O)ccn2N(C23c4ccccc4CC2Cc2c(F)cccc23)C1C (stereo not shown)"
  EC50: "125 to 250 nM"
- compound: "CC1N(CC2CC2)C(=O)c2c(O)c(=O)ccn2N1C12c3ccccc3CC1Cc1c(F)cccc12 (stereo not shown)"
  EC50: "250 to 375 nM"
- compound: "CN1CN(C23c4cc(F)ccc4CC2Cc2ccc(F)cc23)n2ccc(=O)c(O)c2C1=O (stereo not shown)"
  EC50: "< 125 nM"
- compound: "O=C1c2c(O)c(=O)ccn2N(C23c4ccccc4CC2Cc2c3ccc(F)c2F)CN1CC(F)F (stereo not shown)"
  EC50: "< 125 nM"
- compound: "O=C1c2c(O)c(=O)ccn2N(C23c4cccc(F)c4CC2Cc2c(F)cccc23)CN1CC1CCOCC1 (stereo not shown)"
  EC50: "125 to 250 nM"
- compound: "COCCN1CN(C23c4ccccc4CC2Cc2c(F)cccc23)n2ccc(=O)c(O)c2C1=O (stereo not shown)"
  EC50: "< 125 nM"
- compound: "CN1CN(C23c4ccccc4CC2Cc2ccccc23)n2ccc(=O)c(O)c2C1=O (stereo not shown)"
  EC50: "< 125 nM"
- compound: "O=C1c2c(O)c(=O)ccn2N(C23c4ccccc4CC2Cc2c3ccc(F)c2F)CN1CC1CC1 (stereo not shown)"
  EC50: "> 500 nM"
- compound: "CN1CN(C23c4ccccc4CC2Cc2c3ccc(Cl)c2Cl)n2ccc(=O)c(O)c2C1=O (stereo not shown)"
  EC50: "< 125 nM"
- compound: "CCN1CN(C23c4ccccc4CC2(OC)Cc2ccccc23)n2ccc(=O)c(O)c2C1=O (stereo not shown)"
  EC50: "< 125 nM"
- compound: "Cc1c(F)ccc2c1CC1Cc3ccccc3C21N1CN(C)C(=O)c2c(O)c(=O)ccn21 (stereo not shown)"
  EC50: "< 125 nM"
- compound: "O=C1c2c(O)c(=O)ccn2N(C23c4ccccc4CC2Cc2c(Cl)cccc23)CN1CC1CCCC1 (stereo not shown)"
  EC50: "> 500 nM"
- compound: "Cc1cccc2c1CC1Cc3c(F)cccc3C21N1CN(C)C(=O)c2c(O)c(=O)ccn21 (stereo not shown)"
  EC50: "< 125 nM"
- compound: "CC1N(CCF)C(=O)c2c(O)c(=O)ccn2N1C12c3ccccc3CC1Cc1c(Cl)cccc12 (stereo not shown)"
  EC50: "375 to 500 nM"
- compound: "COCCN1CN(C23c4cccc(F)c4CC2Cc2c(F)cccc23)n2ccc(=O)c(O)c2C1=O (stereo not shown)"
  EC50: "< 125 nM"
- compound: "O=C1c2c(O)c(=O)ccn2N(C23c4ccccc4CC2Cc2cc(F)c(F)cc23)CN1CCc1ccc(F)cc1 (stereo not shown)"
  EC50: "125 to 250 nM"
- compound: "CN1C(=O)c2c(O)c(=O)ccn2N(C23C(=Cc4c(F)cccc42)Cc2c(F)cccc23)C1CN (stereo not shown)"
  EC50: "125 to 250 nM"
- compound: "O=C1c2c(O)c(=O)ccn2N(C23c4ccccc4CC2Cc2cc(F)c(F)cc23)CN1Cc1ccc(F)cc1 (stereo not shown)"
  EC50: "> 500 nM"
- compound: "O=C1c2c(O)c(=O)ccn2N(C23c4ccccc4CC2Cc2c3ccc(F)c2F)CN1CC1CCCC1 (stereo not shown)"
  EC50: "> 500 nM"
- compound: "O=C1c2c(O)c(=O)ccn2N(C23c4cccc(F)c4CC2Cc2c(F)cccc23)CN1CCCF (stereo not shown)"
  EC50: "< 125 nM"
- compound: "CCN1CN(C23c4ccccc4CC2Cc2c3ccc(Cl)c2Cl)n2ccc(=O)c(O)c2C1=O (stereo not shown)"
  EC50: "< 125 nM"
- compound: "O=C1c2c(O)c(=O)ccn2N(C23c4ccccc4CC2Cc2c(Cl)cccc23)CN1C1CC1 (stereo not shown)"
  EC50: "125 to 250 nM"
- compound: "CN1CN(C23c4cccc(F)c4CC2Cc2c(F)cccc23)n2ccc(=O)c(O)c2C1=O (stereo not shown)"
  EC50: "< 125 nM"
- compound: "CC1N(C)C(=O)c2c(O)c(=O)ccn2N1C12c3ccccc3CC1Cc1c(Cl)cccc12 (stereo not shown)"
  EC50: "250 to 375 nM"
- compound: "O=C1c2c(O)c(=O)ccn2N(C23c4cccc(F)c4CC2Cc2c(F)cccc23)CN1CCF (stereo not shown)"
  EC50: "< 125 nM"
